System Under Test: Interstitial collagenase (Homo sapiens) (UniProt P03956)
Sequence (P03956 whole entry): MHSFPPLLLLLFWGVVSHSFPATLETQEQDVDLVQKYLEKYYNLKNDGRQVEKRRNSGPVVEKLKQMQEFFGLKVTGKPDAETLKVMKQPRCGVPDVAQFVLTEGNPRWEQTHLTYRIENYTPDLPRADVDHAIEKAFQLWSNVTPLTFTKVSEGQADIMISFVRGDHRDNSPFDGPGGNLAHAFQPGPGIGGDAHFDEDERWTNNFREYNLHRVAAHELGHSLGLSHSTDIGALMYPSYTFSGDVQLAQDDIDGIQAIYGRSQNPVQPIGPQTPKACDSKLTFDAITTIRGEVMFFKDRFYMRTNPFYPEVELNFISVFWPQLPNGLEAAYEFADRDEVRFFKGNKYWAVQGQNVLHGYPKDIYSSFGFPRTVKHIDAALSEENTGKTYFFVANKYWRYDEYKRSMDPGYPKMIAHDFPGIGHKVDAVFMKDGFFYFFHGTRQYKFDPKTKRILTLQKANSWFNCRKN
Measurement Notes: Inhibition of MMP1
Assay Metric: log(10^6/IC50)

1) COc1ccc(S(=O)(=O)C2(C(=O)NO)CCN(Cc3ccc4ccccc4c3)CC2)cc1 : 3.43
2) COc1ccc(S(=O)(=O)C2(C(=O)NO)CCN(Cc3ccc(Cl)c(Cl)c3)CC2)cc1 : 3.35
3) CCC(CC)COc1ccc(S(=O)(=O)C2(C(=O)NO)CCN(Cc3ccccc3)CC2)cc1 : 2.5

###

System Under Test: Interstitial collagenase (Homo sapiens) (UniProt P03956)
Measurement Notes: Inhibition of MMP1
Given measured log(10^6/IC50), output met if it is greater than or equal to 3 and not met if not.

1. COc1ccc(S(=O)(=O)[C@](C)(Cc2ccc(OCCCN3CCN(c4cccc(Cl)c4)CC3)cc2)C(=O)NO)cc1 : met
2. C#CC[C@](Cc1cccnc1)(C(=O)NO)S(=O)(=O)c1ccc(OC)cc1 : met
3. C=C(C)[C@@](C)(C(=O)NO)S(=O)(=O)c1ccc(OC)cc1 : met
4. CCCCOc1ccc(S(=O)(=O)C2(C(=O)NO)CCN(Cc3ccc(Cl)c(Cl)c3)CC2)cc1 : not met
5. CCN(CC)CCOc1ccc(CC(C)(C(=O)NO)S(=O)(=O)c2ccc(OC)cc2)cc1 (single isomer, unassigned) : met
6. C=C(C)N1CCC(C(=O)NO)(S(=O)(=O)c2ccc(OC)cc2)CC1 : not met
7. O=C(NO)C1(S(=O)(=O)c2ccc(Oc3ccc(Cl)cc3)cc2)CCNCC1 : not met
8. CCN1CCC(C(=O)NO)(S(=O)(=O)c2ccc(Oc3ccc(Cl)cc3)cc2)CC1 : not met
9. COc1ccc(S(=O)(=O)C2(C(=O)NO)CCN(Cc3ccc(-c4ccccc4)cc3)CC2)cc1 : not met
10. COc1ccc(S(=O)(=O)C2(C(=O)NO)CCN(Cc3ccc(F)cc3)CC2)cc1 : met
